B1: ZNF511 (parent)
chain: EPLPVERDPAAGAAPFRFVARPVR

Variants of: B1
Assay: protein stability index of a GFP-peptide fusion (GPS, HEK-293T) (PSI 1-6); higher = more stable;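 note: lentivirally expressed fusions sorted by FACS into six bins by GFP to DsRed ratio, PSI derived from sequencing read proportions per bin multiplied by bin number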
Conditions: c terminus: a fixed tail appended
Decision: protein stability index compared against 2; not below it gives True, below it gives False.

In [3]: df
Out[3]:
    mutant_code  assigned_label
 0         A10H           False
 1         R24Q           False
 2          P2L            True
 3         A10S            True
 4         P22T           False
 5         A14M            True
 6          P4H            True
 7         A10R            True
 8          L3Y            True
 9         P22D            True
10         R17P            True
11          D8L            True
12         G12M            True
13          R7C            True
14          L3S            True
15          P4S            True
16         A10C           False
17         V19K            True
18          E1D            True
19          V5M            True
20         A14V           False
21         V23L            True
22          E1W            True
23         F16M            True
24          E1Y           False
25         A14Q            True
26         F16I            True
27         A10Q            True
28          R7M            True
29         R24V           False
30          L3H            True
31         R21D            True
32          E6W           False
33          E6R            True
34          P9A           False
35         A13M            True
36          P9T            True
37         F16Y            True
38          P4V            True
39         A14T            True
40         R17I            True
41         A14K            True
42         V19P            True
43          P4K            True
44         A20L            True
45          P9C            True
46          E6P            True
47         V23W            True
48         G12P           False
49         R24L           False
50         V19I            True
51          R7W           False
52         F16L            True
53         V23P            True
54         A10G            True
55          E1A            True
56         A20C           False
57          E1V            True
58         V19W            True
59         V23D            True
60         A14S            True
61         F18Y            True
62          R7F            True
63         F18T            True
64          E6A            True
65          L3T            True
66         R21I            True
67         R21F            True
68         R24N            True
69         F18V            True
70          R7S            True
71          E1R            True
72         P15T            True
73         P15N            True
74         P15K            True
75         F16Q            True
76         R21W           False
77         V23F            True
78          P4N            True
79          E6Q            True
80         A11M           False
81         A20M            True
